Target: T1, human BCMA (huBCMA) on cells (human, UniProt Q02223 1-184)
T1 construct: endogenous on H929, JD38 and other myeloma and B-cell lines and on patient plasma cells; also called native human BCMA
T1 chain: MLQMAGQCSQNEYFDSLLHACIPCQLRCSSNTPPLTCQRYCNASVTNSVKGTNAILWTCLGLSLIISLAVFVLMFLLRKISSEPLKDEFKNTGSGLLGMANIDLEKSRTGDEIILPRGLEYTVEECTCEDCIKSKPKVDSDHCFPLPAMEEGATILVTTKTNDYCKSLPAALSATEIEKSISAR
Assay: FACS, hu BCMA
Listed here: items and their measured MFI.
State the answer as a number, implicitly in MFI.

BINDER	MFI / MFI
35D2 (antibody, V domains shown, IgG2 or IgG4, purified from hybridoma supernatant; also called 35D2.1; Ab-15) VH: EVQLLESGGALVQPGGSLRLSCAASGFTFSSYAMNWVRQAPGKGLEWVSAISVGGGTYYADSVKGRFTISRDNSKNTLYLHVNSLRAEDTAVYYCAKDQVTMVRGVWYYYGLDVWGQGTTVTVSS VL: VIVLIQSPLSLPVTPGEPASISCRSSQSLLHSNGNNYLDWYLQKPGQSPHLLISLGSNRTSGVPDRFSGSGSGTDFTLKISRVEAEDVGFYYCMQALQPPRRFGQGTKLEIKR	129000

**Q:** Quickly give me recorded MFI for 37B2 (antibody, V domains shown, IgG2 or IgG4, purified from hybridoma supernatant; also called 37B2.1; Ab-16) VH: EVQLLESGGALVQPGGSLRLSCAASGFTFSNYAMNWVRQAPGKGLEWVSAISVGGDTYYADSVKGRFTISRDNSKNTLYLHVNSLSAEDSAVYYCAKDQVTLVRGVWYYYGLDVWGQGTTVTVSS VL: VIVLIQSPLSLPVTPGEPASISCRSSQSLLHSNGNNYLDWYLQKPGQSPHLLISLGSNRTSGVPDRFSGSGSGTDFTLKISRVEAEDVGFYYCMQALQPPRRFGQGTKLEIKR
**A:** 83700

**Q:** Consider the binder 32B5 (antibody, V domains shown, IgG2 or IgG4 as purified from hybridoma (32B5.1); later converted to human IgG1; an engineered version may be meant there; also called 32B5.1; Ab-10) VH: EVQLLESGGALVQPGGSLRLSCAASGFTFSSYAMNWVRQAPGKGLEWVSAISVGGDTYYADSVKGRFTISRDNSKNTLYLHVNSLSAEDSAVYYCAKDQVTLVRGVWYYYGLDVWGQGTTVTVSS VL: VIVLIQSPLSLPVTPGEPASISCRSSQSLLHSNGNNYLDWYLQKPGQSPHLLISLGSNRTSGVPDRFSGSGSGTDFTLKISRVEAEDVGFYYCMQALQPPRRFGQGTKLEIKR . State its measured MFI.
**A:** 137000

// data source = patent US20150344583A1
